# Tested on: Bacillus subtilis
# experimental_protocol: cleaved RNA product abundance (RNA/gDNA barcode ratio) relative to median wild-type variant (ratio to wild type); higher = more accumulation of the downstream cleavage product
# condition_parameters: experiment (reporter, strain, medium): exp 2b: truncated aprE reporter, strain BJT200; cleavage site: cggR-gapA (positions -7 to +36 mutated)
test_readout: cleaved RNA product abundance
Answers are plain numbers.

Qu. # get_value(readout='cleaved RNA product abundance', item= ACAGACGAAGGAGCCGCAAAGAAATTATTAAGGGATGAAAAATCCCTCAATATAAATATCTCTCACTTATTTAAA )
Ans. 0.852

Qu. # get_value(readout='cleaved RNA product abundance', item= ACAGACGAAGGAGCCGCAAAGAAGTTATTAAGGGTTGAATCATCCCTCAATATAAATATCTCTCACTTATTTAAA )
Ans. 0.5

Qu. # get_value(readout='cleaved RNA product abundance', item= ACAGACGAAGGAGCCGCAAAAAAGTTATTAAGGGATGAATAATCTCTCAATATAAATATCTCTCACTTATTTAAA )
Ans. 0.703

Dear colleague, could you send me cleaved RNA product abundance for each of the items below? Thanks.
1. ACAGACGAAGGAGCCGCAAAGAATTTATTAAGGGATGAATAATCCCTCACTATAAATATCTCTCACTTATTTAAA
2. ACAGACGAAGGAGCCGCAAAGTAGTTAATAAGGGATGAATAATCCCTCAATATAAATATCTCTCACTTATTTAAA
3. ACAGACGAAGGAGCCGCAAAGAAGTTATTAAGGGATTAATAATCCATCAATATAAATATCTCTCACTTATTTAAA
4. ACAGACGAAGGAGCCGCAAAGAAGTGATTAATGGATGAATAATCCCTCAATATAAATATCTCTCACTTATTTAAA
5. ACAGACGAAGGAGCCGCAAAGAAGTTATTAAGGGATGAAAAATTCCTCAATATAAATATCTCTCACTTATTTAAA

Ans.
0.193
0.292
0.401
0.0996
0.274

* * *

Kindly supply the reported cleaved RNA product abundance values for the records listed here.
# Tested on: Bacillus subtilis
# experimental_protocol: cleaved RNA product abundance (RNA/gDNA barcode ratio) relative to median wild-type variant (ratio to wild type); higher = more accumulation of the downstream cleavage product
# condition_parameters: experiment (reporter, strain, medium): exp 2b: truncated aprE reporter, strain BJT200; cleavage site: cggR-gapA (positions -7 to +36 mutated)
Numbers only.

For orientation, consider the following solved cases.
Qu. # get_value(readout='cleaved RNA product abundance', item= ACAGACGAAGGAGCCGCAAAGAATTTATTAAGGGATGAATAATCCCTCAATATAAACATCTCTCACTTATTTAAA )
Ans. 0.291

Qu. # get_value(readout='cleaved RNA product abundance', item= ACAGACGAAGGAGCCGCAAAGAAGTTATTAAACGATGAATAATCTCTCAATATAAATATCTCTCACTTATTTAAA )
Ans. 0.109

Qu. # get_value(readout='cleaved RNA product abundance', item= ACAGACGAAGGAGCCGCAAAGAAATTATTAAGGGATGAATAATCCATCAATATAAATATCTCTCACTTATTTAAA )
Ans. 0.163

Dear colleague, could you send me cleaved RNA product abundance for each of the items below? Thanks.
1. ACAGACGAAGGAGCCGCAAAGAACTTATTAAGGGATGAATAATCCCTGAATATAAATATCTCTCACTTATTTAAA
2. ACAGACGAAGGAGCCGCAAAGAATTTATTAAGGGATGAATAATCCCTCATTATAAATATCTCTCACTTATTTAAA
3. ACAGACGAAGGAGCCGCAAAGAACTTATTAAGGGATGAATAATCCATCAATATAAATATCTCTCACTTATTTAAA

Ans.
[0.264, 0.278, 0.15]

Qu. # get_value(readout='cleaved RNA product abundance', item= ACAGACGAAGGAGCCGCAAAGAACTTATTAAGGGATGAATAATTCCTCAATATAAATATCTCTCACTTATTTAAA )
Ans. 0.315

* * *

# System: Bacillus subtilis
# experimental_protocol: cleaved RNA product abundance (RNA/gDNA barcode ratio) relative to median wild-type variant (ratio to wild type); higher = more accumulation of the downstream cleavage product
# condition_parameters: experiment (reporter, strain, medium): exp 8a: truncated aprE reporter, strain BJT201 with 2% xylose (RNase J1 expressed); cleavage site: glnRA (positions -5 to +31 mutated)
# binarize cleaved RNA product abundance: threshold 0.6 inclusive, high side 1 (yes), low side 0 (no)

Qu. Answer whether cleaved RNA product abundance of CGACATGTCCCGCTTCTTTCATTAATACGTTAGCAACTGTTTTGATATATACATTTACCTTTTAAGAGGAGGAAT is greater than or equal to 0.6.
Ans. 0 (no)

Qu. Answer whether cleaved RNA product abundance of CGACATGTCCCGCTTCTTTCATTAATCCTTTAGCAACTGGTTTGCTATATACATTTACCTTTTAAGAGGAGGAAT is greater than or equal to 0.6.
Ans. 0 (no)

Qu. Answer whether cleaved RNA product abundance of CGACATGTCCCGCTTCTTTCATTAATCCGTTAGCAACTGTTTGGCTATATAAATTTACCTTTTAAGAGGAGGAAT is greater than or equal to 0.6.
Ans. 0 (no)

Qu. Answer whether cleaved RNA product abundance of CGACATGTCCCGCTTCTTTCATTAATCAGTTAGCAACTGTTTTGCTATATACATTTACCGTTTAAGAGGAGGAAT is greater than or equal to 0.6.
Ans. 1 (yes)

Qu. Answer whether cleaved RNA product abundance of CGACATGTCCCGCTTCTTTCATTAATCCGTTAGCAAGTGTTTTGCTATATAAATTTACCTTTTAAGAGGAGGAAT is greater than or equal to 0.6.
Ans. 1 (yes)

Qu. Answer whether cleaved RNA product abundance of CGACATGTCCCGCTTCTTTCATTAAGCCGTTATCAACTGTTTTGCTATATACATTTACCTTTTAAGAGGAGGAAT is greater than or equal to 0.6.
Ans. 0 (no)

Others:
Qu. Answer whether cleaved RNA product abundance of CGACATGTCCCGCTTCTTTCATTATTCCATTAGCAATTGTTTTGCTATATACATTTACCTTTTAAGAGGAGGAAT is greater than or equal to 0.6.
Ans. 1 (yes)

* * *

Kindly supply the reported cleaved RNA product abundance values for the records listed here.
# System: Bacillus subtilis
# experimental_protocol: cleaved RNA product abundance (RNA/gDNA barcode ratio) relative to median wild-type variant (ratio to wild type); higher = more accumulation of the downstream cleavage product
# condition_parameters: experiment (reporter, strain, medium): exp 4a: truncated aprE reporter, strain BJT201 with 2% xylose (RNase J1 expressed); cleavage site: cggR-gapA (positions -7 to +36 mutated)
Give bare numbers.

For orientation, consider the following solved cases.
Qu. So what cleaved RNA product abundance did ACAGACGAAGGAGCCGCAAAGAAGTTATTAAGGGATGAATACTCCCTTAATATAAATATCTCTCACTTATTTAAA get with Bacillus subtilis?
Ans. 0.47

Qu. So what cleaved RNA product abundance did ACAGACGAAGGAGCCGCAAAGAAGTTATTAAAGGATGAATAATACCTCAATATAAATATCTCTCACTTATTTAAA get with Bacillus subtilis?
Ans. 0.121

Qu. So what cleaved RNA product abundance did ACAGACGAAGGAGCCGCAAAGAAGTAATTAAGGGATGAATAATCCCTGAATATAAATATCTCTCACTTATTTAAA get with Bacillus subtilis?
Ans. 0.253

Qu. So what cleaved RNA product abundance did ACAGACGAAGGAGCCGCAAAGAAGTTATTAAGGCATGAATAATCGCTCAATATAAATATCTCTCACTTATTTAAA get with Bacillus subtilis?
Ans. 0.0686

Qu. So what cleaved RNA product abundance did ACAGACGAAGGAGCCGCAAAGAAGTTTTTAAGGGATGAATAATCCCTCATTATAAATATCTCTCACTTATTTAAA get with Bacillus subtilis?
Ans. 0.405

Qu. So what cleaved RNA product abundance did ACAGACGAAGGAGCCGCAAAGATGTTATTAAGGGATCAATAATCCCTCAATATAAATATCTCTCACTTATTTAAA get with Bacillus subtilis?
Ans. 1.08

Next sequence, please.
Qu. So what cleaved RNA product abundance did ACAGACGAAGGAGCCGCAAAGAAGTTATTAAGGGATGAATACTCCCTCAATATAAATATCTCTCACTTATTTAAA get with Bacillus subtilis?
Ans. 0.732

* * *

# Tested on: Bacillus subtilis
# experimental_protocol: cleaved RNA product abundance (RNA/gDNA barcode ratio) relative to median wild-type variant (ratio to wild type); higher = more accumulation of the downstream cleavage product
# condition_parameters: experiment (reporter, strain, medium): exp 4a: truncated aprE reporter, strain BJT201 with 2% xylose (RNase J1 expressed); cleavage site: cggR-gapA (positions -7 to +36 mutated)
test_readout: cleaved RNA product abundance

Qu. # get_value(readout='cleaved RNA product abundance', item= ACAGACGAAGGAGCCGCAAAGAAGTTATTAACGGATGAATAAACCCTCAATATAAATATCTCTCACTTATTTAAA )
Ans. 0.12

Dear colleague, could you send me cleaved RNA product abundance for each of the items below? Thanks.
1. ACAGACGAAGGAGCCGCAAAGAACTTATTAAGGGATGAATAATCCCTCAATATATATATCTCTCACTTATTTAAA
2. ACAGACGAAGGAGCCGCAAAGAAGTTATTAAGGGATGGATAATCCCTAAATATAAATATCTCTCACTTATTTAAA
3. ACAGACGAAGGAGCCGCAAATAAGTTATTAAGAGATGAATAATCCCTCAATATAAATATCTCTCACTTATTTAAA
4. ACAGACGAAGGAGCCGCAAAGAAGTTATTAAGGGATCAATAATACCTAAATATAAATATCTCTCACTTATTTAAA
5. ACAGACGAAGGAGCCGCAAAGAAGTTATTAAGGGATCAATAAACCCTCAATATAAATATCTCTCACTTATTTAAA
6. ACAGACGAAGGAGCCGCAAAGAAGTTATTAATGGATGAAAAATCCCTCAATATAAATATCTCTCACTTATTTAAA

Ans.
1. 0.454
2. 0.553
3. 0.13
4. 0.0917
5. 0.429
6. 0.166
